# system: human Nav1.8 channels (Homo sapiens)
# Construct: expressed in transfected cells
# Sequence (Q9Y5Y9 whole entry): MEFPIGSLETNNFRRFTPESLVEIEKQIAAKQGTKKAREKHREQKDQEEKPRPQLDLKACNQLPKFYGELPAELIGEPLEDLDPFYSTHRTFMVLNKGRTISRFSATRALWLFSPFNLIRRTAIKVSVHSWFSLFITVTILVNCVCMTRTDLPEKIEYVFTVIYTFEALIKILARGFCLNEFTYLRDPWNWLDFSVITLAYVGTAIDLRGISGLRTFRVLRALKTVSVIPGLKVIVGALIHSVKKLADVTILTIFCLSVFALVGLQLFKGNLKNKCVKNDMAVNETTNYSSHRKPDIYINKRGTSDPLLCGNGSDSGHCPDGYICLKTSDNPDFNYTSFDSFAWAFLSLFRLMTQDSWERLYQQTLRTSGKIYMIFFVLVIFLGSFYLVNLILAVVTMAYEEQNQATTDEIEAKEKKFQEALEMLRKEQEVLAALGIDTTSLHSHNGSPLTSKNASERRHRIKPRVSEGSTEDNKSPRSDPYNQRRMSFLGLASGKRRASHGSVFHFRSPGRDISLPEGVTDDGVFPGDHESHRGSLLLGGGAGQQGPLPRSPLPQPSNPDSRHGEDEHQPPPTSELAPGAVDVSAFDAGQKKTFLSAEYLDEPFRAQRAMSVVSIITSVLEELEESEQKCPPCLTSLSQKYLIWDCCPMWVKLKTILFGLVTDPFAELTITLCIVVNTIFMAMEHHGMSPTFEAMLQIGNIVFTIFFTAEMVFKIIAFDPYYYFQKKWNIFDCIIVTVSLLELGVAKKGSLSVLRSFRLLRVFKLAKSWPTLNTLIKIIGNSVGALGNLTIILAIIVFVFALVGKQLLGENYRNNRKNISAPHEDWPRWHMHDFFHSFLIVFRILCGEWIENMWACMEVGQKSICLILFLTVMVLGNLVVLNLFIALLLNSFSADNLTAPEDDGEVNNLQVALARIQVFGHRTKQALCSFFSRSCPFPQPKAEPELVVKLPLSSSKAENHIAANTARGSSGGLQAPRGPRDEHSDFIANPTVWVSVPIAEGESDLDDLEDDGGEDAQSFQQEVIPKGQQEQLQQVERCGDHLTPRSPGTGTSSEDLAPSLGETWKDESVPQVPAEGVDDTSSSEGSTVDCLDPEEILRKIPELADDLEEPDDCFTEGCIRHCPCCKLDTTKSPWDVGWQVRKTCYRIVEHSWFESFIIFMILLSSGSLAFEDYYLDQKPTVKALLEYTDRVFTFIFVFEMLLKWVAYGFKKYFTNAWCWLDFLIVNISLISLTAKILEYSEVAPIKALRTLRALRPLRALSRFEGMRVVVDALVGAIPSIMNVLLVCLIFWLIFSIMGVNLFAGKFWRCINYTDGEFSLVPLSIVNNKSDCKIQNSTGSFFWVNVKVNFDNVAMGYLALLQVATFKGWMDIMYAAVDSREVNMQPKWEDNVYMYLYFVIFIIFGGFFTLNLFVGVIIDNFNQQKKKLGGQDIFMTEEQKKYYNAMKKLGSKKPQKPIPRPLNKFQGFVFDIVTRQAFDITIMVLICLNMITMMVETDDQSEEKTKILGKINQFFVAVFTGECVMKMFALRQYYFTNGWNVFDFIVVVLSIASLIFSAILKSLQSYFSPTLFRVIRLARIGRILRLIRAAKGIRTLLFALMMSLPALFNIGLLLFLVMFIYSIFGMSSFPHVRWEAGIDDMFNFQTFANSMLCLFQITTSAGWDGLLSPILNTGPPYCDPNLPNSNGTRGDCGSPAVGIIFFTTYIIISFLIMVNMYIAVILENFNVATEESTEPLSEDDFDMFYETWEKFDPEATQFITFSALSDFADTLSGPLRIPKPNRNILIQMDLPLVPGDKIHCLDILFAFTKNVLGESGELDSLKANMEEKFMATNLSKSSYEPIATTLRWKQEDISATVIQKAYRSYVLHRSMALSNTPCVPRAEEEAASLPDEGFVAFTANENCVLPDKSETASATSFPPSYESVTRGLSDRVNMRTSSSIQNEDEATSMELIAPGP
# assay_explanation: Nav1.8 Qube automated patch-clamp assay
# Type: cell-based
# assay_setup: human Nav1.8 stably expressed in HEK 293 cells; whole-cell voltage clamp, room temperature; resting or inactivated state not specified; read-out: IC50 values (nM) for Examples in the Nav1.8 Qube Assay
# Procedure: Compounds were tested on human Nav1.8 and Nav1.5 channels stably expressed in human embryo kidney (HEK) 293 cells. […] For all Qube® experiments offline analysis was used to determine percent inhibition as a function of drug concentration. IC50 values were determined by fitting to the Hill equation.
# log10(IC50) values compiled below
Field: value | Transform: log10 | Quantity: IC50 | Unit: nM

Exercise: Would you mind telling me what log10(IC50) value was observed for `COc1ccc(C(=O)Nc2ccnc(S(N)(=O)=O)c2)c(N2CCCC(F)(F)CC2)n1` ?
Key: 1.46

Exercise: Would you mind telling me what log10(IC50) value was observed for `NS(=O)(=O)c1cncc(NC(=O)c2cc(Cl)cnc2N2CCC(F)(F)CC2)c1` ?
Key: 2.24

Exercise: Would you mind telling me what log10(IC50) value was observed for `NS(=O)(=O)c1cc(NC(=O)c2cc(C(F)(F)F)cnc2N2CCC[C@@H]2C(F)(F)F)ccn1` ?
Key: 2.34

Exercise: Would you mind telling me what log10(IC50) value was observed for CC1CCCN(c2ncc(C(F)(F)F)cc2C(=O)Nc2ccnc(S(N)(=O)=O)c2)C1 (single isomer, unassigned) [Example 56] ?
Key: 0.96

Exercise: Would you mind telling me what log10(IC50) value was observed for NS(=O)(=O)c1cc(NC(=O)c2cc(C(F)(F)F)cnc2N2CC3CCC3(C(F)(F)F)C2)ccn1 (single isomer, unassigned) [Example 58] ?
Key: 1.00

Exercise: Would you mind telling me what log10(IC50) value was observed for CC1CN(c2ncc(C(F)(F)F)cc2C(=O)Nc2ccnc(S(C)(=O)=O)c2)CCC1(F)F (single isomer, unassigned) [Example 148] ?
Key: 1.41

Exercise: Would you mind telling me what log10(IC50) value was observed for CC1CCN(c2ncc(C(F)(F)F)cc2C(=O)Nc2ccnc(S(N)(=O)=O)c2)CCC1(F)F (centres unmarked) ?
Key: 0.20

Exercise: Would you mind telling me what log10(IC50) value was observed for `NS(=O)(=O)c1cc(NC(=O)c2cc(C(F)(F)F)cnc2N2C[C@@H]3[C@H](C2)C(F)(F)C3(F)F)ccn1` ?
Key: 1.15

Exercise: Would you mind telling me what log10(IC50) value was observed for `Cc1nc(N2CCCCC2)c(C(=O)Nc2cc[nH]c(=O)c2)c(C)c1Cl` ?
Key: 2.55

Source listed as patent US20210387966A1.
